assay: TOX21_p53_BLA_p2_viability: Viability Assessment in the Tox21 HCT-116 p53 Agonism Beta-lactamase Assay, Phase 2 (AID 2283591);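 further: compound exposure lasted 16 h at 37 °C; actives lower the ATP signal meaning cytotoxicity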
Results filed as inconclusive are left out. Activity calls are given as the source filed them. How the source made its calls: active means hit-call score of the fitted dose curve at least 0.9, where 1 is the maximum; inconclusive means response in the unintended direction; inactive means score below 0.9.
Allowed answers: Yes = active, No = inactive

Molecule	Label
CCCCCCCCCCCCCCCC(=O)OC[C@@H](COP(=O)([O-])OCC[N+](C)(C)C)OC(=O)CCCCCCCCCCCCCCC	No
C[C@@H]1C\C=C/C=C/C=C/C=C/[C@H](O[C@@H]2O[C@H](C)[C@@H](O)[C@H](N)[C@@H]2O)C[C@@H]2O[C@](O)(C[C@@H](O)C[C@@H]3O[C@@H]3/C=C\C(=O)O1)C[C@H](O)[C@H]2C(=O)O	No

[Q] Outcome? O=C(Oc1cccc2cccnc12)c1ccccc1
[A] No

[Q] Outcome? COc1ccc(S(=O)(=O)Nc2nnc(CC(C)C)s2)cc1
[A] No

[Q] Outcome? CC/C=C\C/C=C\C/C=C\C/C=C\C/C=C\C/C=C\CCC(=O)O
[A] No

---

biological target: Retinoic acid receptor RXR-alpha (Homo sapiens) (UniProt P19793); assay: OT_NURR1_NURR1RXRa_1440: Odyssey Thera (OT) 24-hour HEK293T Protein Complementation Assay for Nurr1/retinoid X receptor (RXR) (AID 2283386)
Sequence (P19793 whole entry, looked up): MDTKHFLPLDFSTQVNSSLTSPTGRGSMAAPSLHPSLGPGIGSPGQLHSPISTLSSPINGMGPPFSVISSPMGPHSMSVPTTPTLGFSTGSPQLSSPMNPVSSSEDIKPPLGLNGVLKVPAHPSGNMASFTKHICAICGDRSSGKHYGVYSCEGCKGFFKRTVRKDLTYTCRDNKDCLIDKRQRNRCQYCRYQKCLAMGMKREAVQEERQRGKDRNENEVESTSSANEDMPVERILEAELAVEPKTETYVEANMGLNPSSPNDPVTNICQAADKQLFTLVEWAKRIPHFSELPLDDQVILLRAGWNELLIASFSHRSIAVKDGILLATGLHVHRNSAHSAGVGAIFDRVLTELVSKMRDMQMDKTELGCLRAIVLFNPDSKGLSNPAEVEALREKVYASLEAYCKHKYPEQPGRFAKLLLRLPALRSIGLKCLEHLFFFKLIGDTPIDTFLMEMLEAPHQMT
Results filed as inconclusive are left out. Activity calls are given as the source filed them. Rule for the calls: active = hit-call score of the fitted dose curve at least 0.9, where 1 is the maximum; inconclusive = response in the unintended direction; inactive = score below 0.9.
Allowed answers: active, inactive

# count of solved cases: 8
>>> print(df.to_string())
                                   compound     label
0                                CC/C=C\CCO  inactive
1  O=C1NC(=O)C2CC=CCC12 (centres undefined)  inactive
2                                 CCC(C)=NO  inactive
3                                 Cc1cccnc1  inactive
4  O=C(CC(C(=O)OC1CCCCC1)S(=O)(=O)O)OC1CCCCC1 (centres undefined)  inactive
5    CCCCC(CC)COC(=O)CS (centres undefined)    active
6  CC[N+](CC)(CC(=O)Nc1c(C)cccc1C)Cc1ccccc1 (tested in a mixture with another compound)  inactive
7                CCCCOC(=O)COc1ccc(Cl)cc1Cl  inactive

[Q] Outcome? O=C(O)/C=C\C(=O)O
[A] inactive

[Q] Outcome? COC(=O)[C@]1(C)CCC[C@@]2(C)[C@H]1CC=C1C=C(C(C)C)CC[C@@H]12
[A] inactive

[Q] Outcome? O=C(Oc1ccccc1)c1ccccc1
[A] inactive

[Q] Outcome? CCCCCC[C@@H](O)C/C=C\CCCCCCCC(=O)O
[A] inactive

[Q] Outcome? CC(C)CC(=O)CC(C)C
[A] inactive

[Q] Outcome? CCOC(=O)CC(=O)OCC
[A] inactive

---

experiment: TOX21_p53_BLA_p3_viability: Viability Assessment in the Tox21 HCT-116 p53 Agonism Beta-lactamase Assay, Phase 3 (AID 2283593);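 further: cells exposed to compound for 16 h before reading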
Inconclusive results are not listed. Activity calls are given as the source filed them. The calls were made as follows: active = hit-call score of the fitted dose curve at least 0.9, where 1 is the maximum; inconclusive = response in the unintended direction; inactive = score below 0.9.
Allowed answers: active, inactive

# count of solved cases: 6
Compound	Label
CCCOc1ccc2nc(NC(=O)OC)sc2c1	inactive
CC(C)OC(=O)OCOP(=O)(CO[C@H](C)Cn1cnc2c(N)ncnc21)OCOC(=O)OC(C)C	inactive
Cc1ccc(C(=O)O)cc1	inactive
COc1cc2c3cc1Oc1cc(ccc1O)C[C@@H]1c4c(cc(OC)c(O)c4Oc4ccc(cc4)C[C@@H]3N(C)CC2)CC[N+]1(C)C	inactive
O=c1c(-c2ccccc2)c1-c1ccccc1	inactive
CC(C)Cc1ccc([C@@H](C)C(=O)NS(C)(=O)=O)cc1	inactive

[Q] Outcome? CC1(S(=O)(=O)O)CC(=O)c2ccccc2C1=O (configuration not stated)
[A] inactive

[Q] Outcome? O=C(O)c1ccccc1Cl
[A] inactive

[Q] Outcome? Cc1cc2c(C(C)C)c(O)c(O)c(C=O)c2c(O)c1-c1c(C)cc2c(C(C)C)c(O)c(O)c(C=O)c2c1O
[A] active

[Q] Outcome? CC(CO)Oc1ccccc1 (configuration not stated)
[A] inactive

[Q] Outcome? Cc1cc(CC(=O)O)n(C)c1C(=O)c1ccc(Cl)cc1
[A] inactive

[Q] Outcome? CCOC(=O)CS
[A] inactive

[Q] Outcome? CCC(CO)(CO)COCC(CC)(CO)CO
[A] inactive

[Q] Outcome? CCC(=O)O[C@]1(C(=O)CCl)[C@@H](C)C[C@H]2[C@@H]3CCC4=CC(=O)C=C[C@]4(C)[C@@]3(F)[C@@H](O)C[C@@]21C
[A] inactive

[Q] Outcome? N=C(N)c1ccc(OCCCOc2ccc(C(=N)N)cc2)cc1
[A] inactive

[Q] Outcome? Cc1cc(C(C)(C)C)cc(C)c1CC1=NCCN1
[A] inactive

[Q] Outcome? CCCCCCCC(=O)CC[C@@H]1[C@@H](C/C=C\CCCC(=O)OC(C)C)[C@@H](O)C[C@H]1O
[A] active

[Q] Outcome? COc1cc2c(cc1OC)-c1cc(=Nc3c(C)cc(C)cc3C)n(C)c(=O)n1CC2
[A] active

---

Target: Cellular tumor antigen p53 (Homo sapiens)
Test: TOX21_p53_BLA_p2_ratio: Tox21 HCT-116 p53 Agonism Beta-lactamase Assay, Ratio, Phase 2 (AID 2283592)
Description: TOX21_p53_BLA_p2 is a cell-based, single-readout assay that uses HCT116, a human intestinal cell line, […] in a 1536-well plate.TOX21_p53_BLA_p2_ratio is an assay readout measuring reporter gene via receptor activity and designed using inducible reporter (beta lactamase induction) detected with GAL4 b-lactamase reporter gene. […] This assay endpoint, TOX21_p53_BLA_p2_ratio, was analyzed in the positive analysis fitting direction relative to DMSO as the negative control and baseline of activity. […]
Records with an inconclusive call do not appear. Calls of active or inactive are those of the source. The calls were made as follows: active = hit-call score of the fitted dose curve at least 0.9, where 1 is the maximum; inconclusive = response in the unintended direction; inactive = score below 0.9.
Allowed answers: t (active), f (inactive)

# count of solved cases: 4
Molecule	Tgt	Label
CC(C)(COP(=O)(O)OP(=O)(O)OC[C@H]1O[C@@H](n2cnc3c(N)ncnc32)[C@H](O)[C@@H]1OP(=O)(O)O)C(O)C(=O)NCCC(=O)NCCS (stereo partly drawn)	Cellular tumor antigen p53 (Homo sapiens)	f
CCCCCCCCCCCC[n+]1ccc2ccccc2c1	Cellular tumor antigen p53 (Homo sapiens)	t
Cc1cc2cc3c(C)cc(=O)oc3c(C)c2o1	Cellular tumor antigen p53 (Homo sapiens)	f
O=C(O)c1ccccc1S	Cellular tumor antigen p53 (Homo sapiens)	f

[Q] Outcome? NC(N)=NN=Cc1c(Cl)cccc1Cl
[A] f

[Q] Outcome? NCCc1cnc[nH]1
[A] f

[Q] Outcome? CCN(CC)Cc1cc(Nc2ccnc3cc(Cl)ccc23)ccc1O
[A] f

[Q] Outcome? COc1ccc(C(=O)c2ccc(C)cc2)c(O)c1
[A] f

[Q] Outcome? Nc1nccs1
[A] f

[Q] Outcome? CN(C)c1nc(N(C)C)nc(N(C)C)n1
[A] f

---

Target: Cellular tumor antigen p53 (Homo sapiens) (UniProt P04637)
Sequence (P04637 whole entry, looked up): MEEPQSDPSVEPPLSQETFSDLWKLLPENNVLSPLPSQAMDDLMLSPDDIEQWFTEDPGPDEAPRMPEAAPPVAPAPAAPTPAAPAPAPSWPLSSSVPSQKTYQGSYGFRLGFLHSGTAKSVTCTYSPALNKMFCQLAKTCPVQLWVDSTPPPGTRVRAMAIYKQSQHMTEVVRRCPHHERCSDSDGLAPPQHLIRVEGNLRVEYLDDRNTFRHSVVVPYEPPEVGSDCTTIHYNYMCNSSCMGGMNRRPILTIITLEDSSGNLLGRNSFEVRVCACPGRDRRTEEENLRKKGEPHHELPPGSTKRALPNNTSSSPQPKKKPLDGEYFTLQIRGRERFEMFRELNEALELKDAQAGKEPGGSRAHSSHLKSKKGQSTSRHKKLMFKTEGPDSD
Assay: TOX21_p53_BLA_p4_ratio: Tox21 HCT-116 p53 Agonism Beta-lactamase Assay, Ratio, Phase 4 (AID 2283601)
Experimental: TOX21_p53_BLA_p4 is a cell-based, single-readout assay that uses HCT116, a human intestinal cell line, […] in a 1536-well plate.TOX21_p53_BLA_p4_ratio is an assay readout measuring reporter gene via receptor activity and designed using inducible reporter (beta lactamase induction) detected with GAL4 b-lactamase reporter gene. […] This assay endpoint, TOX21_p53_BLA_p4_ratio, was analyzed in the positive analysis fitting direction relative to DMSO as the negative control and baseline of activity. […]
Results filed as inconclusive are left out. Activity calls are given as the source filed them. Rule for the calls: active = hit-call score of the fitted dose curve at least 0.9, where 1 is the maximum; inconclusive = response in the unintended direction; inactive = score below 0.9.
Allowed answers: active, inactive

[Q] Outcome? O=C(CCCN1CCC(O)(c2ccc(Br)cc2)CC1)c1ccc(F)cc1
[A] inactive

[Q] Outcome? O=C(O)C(Cc1cc(I)c(O)c(I)c1)c1ccccc1 (centres undefined)
[A] inactive

[Q] Outcome? O=C(O)c1c(Cl)c(Cl)c(Cl)c(Cl)c1-c1c2cc(I)c(=O)c(I)c-2oc2c(I)c(O)c(I)cc12
[A] active

[Q] Outcome? CCCCCCCCCCCC[N+](C)(C)CC(=O)O
[A] inactive

[Q] Outcome? CC(C)OC(C)C
[A] inactive

[Q] Outcome? CC(C)(C)CC(C)(C)c1ccccc1O
[A] active

---

molecular target: THRB (gene 7068) (UniProt P10828); assay: TOX21_TRB_BLA_Antagonist_Followup_ratio: Tox21 Thyroid Hormone Receptor beta Antagonism Beta-lactamase (BLA) Follow-Up Assay, Ratio (AID 2283958)
Sequence (P10828 whole entry, looked up): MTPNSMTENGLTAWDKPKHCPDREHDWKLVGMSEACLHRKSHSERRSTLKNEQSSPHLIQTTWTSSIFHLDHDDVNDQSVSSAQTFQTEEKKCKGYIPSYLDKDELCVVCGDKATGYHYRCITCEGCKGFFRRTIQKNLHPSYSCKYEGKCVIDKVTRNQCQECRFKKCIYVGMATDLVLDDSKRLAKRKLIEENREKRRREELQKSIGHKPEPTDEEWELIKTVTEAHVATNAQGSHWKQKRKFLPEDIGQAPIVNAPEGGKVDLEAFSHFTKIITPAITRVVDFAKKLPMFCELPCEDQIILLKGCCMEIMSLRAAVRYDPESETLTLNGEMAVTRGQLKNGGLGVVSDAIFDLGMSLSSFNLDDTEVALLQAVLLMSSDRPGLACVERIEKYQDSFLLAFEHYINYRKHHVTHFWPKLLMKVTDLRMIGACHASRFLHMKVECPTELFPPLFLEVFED
Records with an inconclusive call do not appear. Activity calls are given as the source filed them. Rule for the calls: active = hit-call score of the fitted dose curve at least 0.9, where 1 is the maximum; inconclusive = response in the unintended direction; inactive = score below 0.9.
Property Name: AC50

Compound	AC50
CC(C)n1c(/C=C/[C@@H](O)C[C@@H](O)CC(=O)O)c(-c2ccc(F)cc2)c2ccccc21	inactive
CC(C)N=C(N)/N=C(\N)Nc1ccc(Cl)cc1	inactive
COc1cc([C@@H]2c3cc4c(cc3[C@H](O)[C@H]3COC(=O)[C@H]23)OCO4)cc(OC)c1OC	27.3 nM (active)
C[n+]1c2cc(N)ccc2cc2ccc(N)cc21 (tested in a mixture with another compound)	36000 nM (active)
CC(=O)Nc1ccn(C2COC(COC(=O)c3ccccc3)O2)c(=O)n1 (configuration not stated)	inactive

AC50 on THRB (gene 7068) (UniProt P10828) for Cc1c(Nc2ncccc2C(=O)O)cccc1C(F)(F)F is inactive
